Target: T1, eukaryotic translation initiation factor 4E (eIF4E), full length human (human, UniProt P06730 2-217)
T1 construct: mature; read as P06730; also called eIF4E protein
T1 sequence (P06730 2-217): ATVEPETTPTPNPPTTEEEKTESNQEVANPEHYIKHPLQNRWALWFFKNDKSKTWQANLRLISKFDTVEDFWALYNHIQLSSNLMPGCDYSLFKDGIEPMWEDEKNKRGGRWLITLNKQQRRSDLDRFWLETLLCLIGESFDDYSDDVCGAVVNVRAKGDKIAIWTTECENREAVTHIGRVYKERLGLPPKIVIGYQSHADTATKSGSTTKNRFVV
Test: Kd estimated from the FTS thermal shift of eIF4E (10 µM eIF4E, 100 µM peptide)
pKd: −log10 of the molar value. Square brackets hold non-standard residues; d marks the D form. Ends that are not written are not given here. αMeF = C[C@](N)(Cc1ccccc1)C(=O)O; Ac5c = NC1(C(=O)O)CCCC1
pKd below 6 gives false (0); pKd at or above it gives true (1).

Decide: pKd of YDREFLLXFQF (position 631 (printed '4') = 1-amino cyclobutanoic acid; C-terminal amide (-NH2)) [Tr2_AIB3_A4C] >= 6?
false (0)

Check this binder for pKd at or above 6: YDREFLL[Ac5c]FQA (not fully specified (C-terminus)) [Tr2_ALA_A5C7 (Tr2_AIB3_A5C with F634 replaced with alanine)]
false (0)

Hi, just wondering whether YDREFLLXFQX (position 631 (printed '5') = 1-amino cyclopentanoic acid; position 634 (printed '*') = Cα-Me-L-Phenylalanine; C-terminal amide (-NH2)) [Tr2_me5_3] shows pKd of 6 or higher.
false (0)

Could you tell me if the measured pKd of YDREXLLXFQF (not fully specified; Cα-methyl-L-phenylalanine at position 628; 1-aminocyclopentanecarboxylic acid (A5C) at position 631, also called truncated modified Tr2_me5-1 peptide) [Tr2_me5-1 peptide (YDRE*LL5FQF)] reaches 6 or more?
true (1)

API: above_or_equal(metric=pKd, cutoff=6) for item KKRYDRE[αMeF]LL[Ac5c]FQF (not fully specified (C-terminus), also called modified 14mer eIF4G1_me5 peptide; helically stabilized peptide) [eIF4G1_me5 peptide (KKRYDRE*LL5FQF)]
true (1)

pKd >= 6 for YDREFLLGFQF (not fully specified (C-terminus), also called truncated Tr2) [Tr2 peptide (truncated 11mer eIF4G1 peptide)] ?
false (0)
